Just for reference, ChEMBL document CHEMBL1765086 is where these values come from.

// values below are reported Ratio EC50
- Organism: Homo sapiens
- assay-text: Selectivity ratio of EC50 for human P2Y6 receptor to EC50 for human P2Y2 receptor

Q: Return Ratio EC50 (reported value) for this molecule: Nc1nc(=O)ccn1[C@@H]1O[C@H](COP(=O)(O)O)[C@@H](O)[C@H]1O
Result: > 100

Q: Return Ratio EC50 (reported value) for this molecule: O=c1[nH]c(=S)ccn1[C@@H]1O[C@H](COP(=O)(O)OP(=O)(O)C(F)(F)P(=O)(O)O)[C@@H](O)[C@H]1O
Result: > 60

Q: Return Ratio EC50 (reported value) for this molecule: Nc1nc(=O)ccn1[C@@H]1O[C@H](COP(=O)(O)OP(=O)(O)O)[C@@H](O)[C@H]1O
Result: > 100

###

- target-under-test: P2Y purinoceptor 6 (Homo sapiens, UniProt Q15077)
- Sequence (Q15077 whole entry): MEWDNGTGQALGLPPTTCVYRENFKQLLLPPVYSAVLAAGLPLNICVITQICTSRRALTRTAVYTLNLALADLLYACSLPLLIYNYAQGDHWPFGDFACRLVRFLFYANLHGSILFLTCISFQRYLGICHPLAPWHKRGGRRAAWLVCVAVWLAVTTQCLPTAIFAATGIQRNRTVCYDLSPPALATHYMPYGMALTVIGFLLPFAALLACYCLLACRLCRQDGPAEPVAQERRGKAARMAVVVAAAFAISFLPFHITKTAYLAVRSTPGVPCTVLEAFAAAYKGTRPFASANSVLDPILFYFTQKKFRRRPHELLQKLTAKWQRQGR
- assay-text: Agonist activity at human recombinant P2Y6 receptor expressed in human 1321N1 cells assessed as [3H]inositol phosphate intracellular accumulation by scintillation proximity assay
- Type: functional, cell-based
assay-endpoint: EC50

Look over these answered cases.
Q: Return EC50 (reported value) for this compound: CSc1nc(=O)ccn1[C@@H]1O[C@H](COP(=O)(O)O)[C@@H](O)[C@H]1O
Result: > 100 µM

Q: Return EC50 (reported value) for this compound: O=c1ccn([C@@H]2O[C@H](COP(=O)(O)O)[C@@H](O)[C@H]2O)c(SCc2ccccc2)n1
Result: > 100 µM

Q: Return EC50 (reported value) for this compound: CCCSc1nc(=O)ccn1[C@@H]1O[C@H](COP(=O)(O)OP(=O)(O)O)[C@@H](O)[C@H]1O
Result: ≥ 100 µM

Next compound, please.
Q: Return EC50 (reported value) for this compound: CCSc1nc(=O)ccn1[C@@H]1O[C@H](COP(=O)(O)O)[C@@H](O)[C@H]1O
Result: > 100 µM

###

- target-under-test: UniProtKB P41231
- Sequence (P41231 whole entry): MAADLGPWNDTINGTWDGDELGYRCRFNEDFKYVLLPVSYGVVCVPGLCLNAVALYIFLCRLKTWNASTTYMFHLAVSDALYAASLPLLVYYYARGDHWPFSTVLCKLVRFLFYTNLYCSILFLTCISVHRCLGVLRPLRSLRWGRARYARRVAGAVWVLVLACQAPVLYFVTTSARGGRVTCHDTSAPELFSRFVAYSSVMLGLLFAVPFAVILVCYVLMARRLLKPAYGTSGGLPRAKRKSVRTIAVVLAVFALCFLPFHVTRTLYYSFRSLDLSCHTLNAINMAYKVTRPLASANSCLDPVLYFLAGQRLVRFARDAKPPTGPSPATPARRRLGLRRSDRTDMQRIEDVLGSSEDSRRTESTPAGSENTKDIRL
- assay-text: Agonist activity at human recombinant P2Y2 receptor expressed in human 1321N1 cells assessed as [3H]inositol phosphate intracellular accumulation by scintillation proximity assay
- Assay type: functional, cell-based
// values below are reported EC50
Hi! Could you send only the number? It should be in µM, unit omitted.

Q: Fill in: EC50 on UniProtKB P41231, entry O=c1ccn([C@@H]2O[C@H](COP(=O)(O)OP(=O)(O)O)[C@@H](O)[C@H]2O)c(SCCc2ccccc2)n1
Result: 0.544

Next compound, please.
Q: Fill in: EC50 on UniProtKB P41231, entry O=c1ccn([C@@H]2O[C@H](COP(=O)(O)OP(=O)(O)C(Cl)(Cl)P(=O)(O)O)[C@@H](O)[C@H]2O)c(=O)[nH]1
Result: 0.612
